- system_under_test: MAT2A homodimer (Homo sapiens, UniProt P31153)
- Construct: inferred from Ni sepharose purification with imidazole elution
- Sequence (P31153 whole entry): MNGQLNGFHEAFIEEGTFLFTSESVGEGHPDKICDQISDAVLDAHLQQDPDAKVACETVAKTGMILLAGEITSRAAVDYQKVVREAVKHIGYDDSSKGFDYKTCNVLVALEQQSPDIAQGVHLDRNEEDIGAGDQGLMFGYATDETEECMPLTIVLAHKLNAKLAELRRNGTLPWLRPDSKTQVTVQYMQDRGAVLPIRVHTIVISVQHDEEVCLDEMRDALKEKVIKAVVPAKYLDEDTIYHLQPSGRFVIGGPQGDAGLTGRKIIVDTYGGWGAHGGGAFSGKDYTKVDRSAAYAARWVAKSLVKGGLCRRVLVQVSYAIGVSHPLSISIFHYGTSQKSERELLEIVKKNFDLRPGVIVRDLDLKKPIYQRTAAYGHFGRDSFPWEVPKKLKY
- assay_procedure: MAT2A inhibition (biochemical, liberated phosphate, PiColorLock Gold)
- measurement_conditions: recombinant MAT2A homodimer; IC50 bin with Max Inh.; read-out: Enzyme Inhibition Bin
pIC50: −log10 of the molar value.
readout_name: pIC50

1. Cn1cc2cc(-n3nc4ncn(CC5CC5)c4c(-c4ccc(Cl)cc4)c3=O)ccc2n1	> 7.00
2. C=C(CF)c1ccc(-c2c(=O)n(-c3ccc4nn(C)cc4c3)nc3c(C#N)cn(CC4CC4)c23)cn1	> 7.00
3. [2H]C([2H])([2H])Oc1ccc(-n2nc3ccn(CC4CC4)c3c(-c3ccc(C)nc3)c2=O)cc1	> 7.00
4. Cn1cc2cc(-n3nc4ccn(CC5CC5)c4c(-c4ccc(C#N)nc4)c3=O)ccc2n1	6.00 to 7.00

Every entry's value here was drawn from patent US20220169654A1.
